Test: physchem
Conditions: IPAc, 26 °C, organic solvent or mixture, thermodynamic from solid
Counter-ions that a name gives are not always drawn.
measurement-name: solubility

compound CCOc1cccc(-c2nc3ncc(NS(C)(=O)=O)nc3n2-c2c(OC)cccc2OC)n1 [Compound I choline salt Form A] , solubility observed: < 2000 µg/mL

###

Assay: physchem
Conditions: ACN/Toluene (1:1), 26 °C, organic solvent or mixture, thermodynamic from solid
Structures can show the parent of a compound that is named as a salt.
measurement-name: solubility

compound CCOc1cccc(-c2nc3ncc(NS(C)(=O)=O)nc3n2-c2c(OC)cccc2OC)n1 [Compound I choline salt Form A] , solubility observed: 2100 to 7000 µg/mL

###

Assay: Approximate solubility of Compound I free acid Form A in 14 solvents at RT
Type: physicochemical
Settings: organic solvent or mixture, thermodynamic from solid, n-heptane
measurement-name: solubility

compound CCOc1cccc(-c2nc3ncc(NS(C)(=O)=O)nc3n2-c2c(OC)cccc2OC)n1 [Compound I free acid Form A] , solubility observed: < 1300 µg/mL

###

Experiment: physchem
Details: ACN, 26 °C, organic solvent or mixture, thermodynamic from solid
Where a name gives a salt, the structure may show the parent alone.
measurement-name: solubility

compound CCOc1cccc(-c2nc3ncc(NS(C)(=O)=O)nc3n2-c2c(OC)cccc2OC)n1 [Compound I choline salt Form A] , solubility observed: 7.1 to 21.4 mg/mL

###

Test: Approximate solubility of Compound I free acid Form A in 14 solvents at RT
Type: physicochemical
Conditions: organic solvent or mixture, thermodynamic from solid, 2-MeTHF
measurement-name: solubility

compound CCOc1cccc(-c2nc3ncc(NS(C)(=O)=O)nc3n2-c2c(OC)cccc2OC)n1 [Compound I free acid Form A] , solubility observed: < 1 mg/mL

###

Assay: physchem
Conditions: ACN/IPAc (9:1), 26 °C, organic solvent or mixture, thermodynamic from solid
Structures can show the parent of a compound that is named as a salt.
measurement-name: solubility

molecule CCOc1cccc(-c2nc3ncc(NS(C)(=O)=O)nc3n2-c2c(OC)cccc2OC)n1 [Compound I choline salt Form A] , solubility observed: 2200 to 7300 µg/mL

###

Test: physchem
Conditions: isopropanol (IPA), 26 °C, organic solvent or mixture, thermodynamic from solid
Where a name gives a salt, the structure may show the parent alone.
measurement-name: solubility

compound CCOc1cccc(-c2nc3ncc(NS(C)(=O)=O)nc3n2-c2c(OC)cccc2OC)n1 [Compound I choline salt Form A] , solubility observed: < 2200 µg/mL

###

Assay: physchem
Details: MEK, 26 °C, organic solvent or mixture, thermodynamic from solid
Counter-ions that a name gives are not always drawn.
measurement-name: solubility

compound CCOc1cccc(-c2nc3ncc(NS(C)(=O)=O)nc3n2-c2c(OC)cccc2OC)n1 [Compound I choline salt Form A] , solubility observed: < 2000 µg/mL

###

Assay: physchem
Details: DMF, 26 °C, organic solvent or mixture, thermodynamic from solid
Counter-ions that a name gives are not always drawn.
measurement-name: solubility

molecule CCOc1cccc(-c2nc3ncc(NS(C)(=O)=O)nc3n2-c2c(OC)cccc2OC)n1 [Compound I choline salt Form A] , solubility observed: 20.2 to 40.4 mg/mL

###

Test: physchem
Conditions: EtOH, 26 °C, organic solvent or mixture, thermodynamic from solid
Structures can show the parent of a compound that is named as a salt.
measurement-name: solubility

molecule CCOc1cccc(-c2nc3ncc(NS(C)(=O)=O)nc3n2-c2c(OC)cccc2OC)n1 [Compound I choline salt Form A] , solubility observed: 6.8 to 20.5 mg/mL

###

Assay: physchem
Details: EtOH/H2O (19:1), 26 °C, organic solvent or mixture, thermodynamic from solid
Structures can show the parent of a compound that is named as a salt.
measurement-name: solubility

molecule CCOc1cccc(-c2nc3ncc(NS(C)(=O)=O)nc3n2-c2c(OC)cccc2OC)n1 [Compound I choline salt Form A] , solubility observed: 6.6 to 19.9 mg/mL

###

Assay: physchem
Settings: CHCl3, 26 °C, organic solvent or mixture, thermodynamic from solid
Counter-ions that a name gives are not always drawn.
measurement-name: solubility

compound CCOc1cccc(-c2nc3ncc(NS(C)(=O)=O)nc3n2-c2c(OC)cccc2OC)n1 [Compound I choline salt Form A] , solubility observed: < 2100 µg/mL

###

Assay: physchem
Details: THF, 26 °C, organic solvent or mixture, thermodynamic from solid
Counter-ions that a name gives are not always drawn.
measurement-name: solubility

compound CCOc1cccc(-c2nc3ncc(NS(C)(=O)=O)nc3n2-c2c(OC)cccc2OC)n1 [Compound I choline salt Form A] , solubility observed: < 1800 µg/mL

###

Assay: physchem
Conditions: DCM, 26 °C, organic solvent or mixture, thermodynamic from solid
Counter-ions that a name gives are not always drawn.
measurement-name: solubility

compound CCOc1cccc(-c2nc3ncc(NS(C)(=O)=O)nc3n2-c2c(OC)cccc2OC)n1 [Compound I choline salt Form A] , solubility observed: < 2100 µg/mL

###

Assay: Dog pharmacokinetic study after oral administration, plasma by LC-MS/MS
Assay type: in vivo, male Beagle dogs
Conditions: male, Beagle, plasma, po, 30 mg/kg, suspension, mean, plasma Compound I
Where a name gives a salt, the structure may show the parent alone.
measurement-name: Cmax (µg/mL)
The reply should contain only the number, in µg/mL.

compound CCOc1cccc(-c2nc3ncc(NS(C)(=O)=O)nc3n2-c2c(OC)cccc2OC)n1 [Compound I choline salt Form A] , Cmax observed: 73.9

###

Experiment: physchem
Settings: methanol, 26 °C, organic solvent or mixture, thermodynamic from solid
Structures can show the parent of a compound that is named as a salt.
measurement-name: solubility

compound CCOc1cccc(-c2nc3ncc(NS(C)(=O)=O)nc3n2-c2c(OC)cccc2OC)n1 [Compound I choline salt Form A] , solubility observed: > 45.2 mg/mL

###

Assay: Dog pharmacokinetic study after oral administration, plasma by LC-MS/MS
Format: in vivo, male Beagle dogs
Details: male, Beagle, plasma, po, 30 mg/kg, suspension, mean, t = 24 h
Structures can show the parent of a compound that is named as a salt.
measurement-name: AUC(0-t)
Please provide the amount together with its unit, number first.

compound CCOc1cccc(-c2nc3ncc(NS(C)(=O)=O)nc3n2-c2c(OC)cccc2OC)n1 [Compound I choline salt Form A] , AUC(0-t) observed: 1120 µg·h/mL

###

Test: Approximate solubility of Compound I free acid Form A in 14 solvents at RT
Format: physicochemical
Details: organic solvent or mixture, thermodynamic from solid, MeOH
Procedure: Approximate solubility of starting material (Compound I free acid Form A) was determined in 14 solvents at RT. Approximately 2 mg of sample was added into a 3-mL glass vial. Solvents in Table 1-3 were then added stepwise into the vials until the solids were dissolved visually or a total volume of 2 mL was reached. Solubility results summarized in Table 1-1 were used to guide the solvent selection in screening experiment design.
measurement-name: solubility

compound CCOc1cccc(-c2nc3ncc(NS(C)(=O)=O)nc3n2-c2c(OC)cccc2OC)n1 [Compound I free acid Form A] , solubility observed: 1000 to 2100 µg/mL

###

Experiment: physchem
Details: Acetone/H2O (19:1), 26 °C, organic solvent or mixture, thermodynamic from solid
Where a name gives a salt, the structure may show the parent alone.
measurement-name: solubility

compound CCOc1cccc(-c2nc3ncc(NS(C)(=O)=O)nc3n2-c2c(OC)cccc2OC)n1 [Compound I choline salt Form A] , solubility observed: 7.2 to 21.6 mg/mL

###

Experiment: Approximate solubility of Compound I free acid Form A in 14 solvents at RT
Format: physicochemical
Conditions: organic solvent or mixture, thermodynamic from solid, EtOH
measurement-name: solubility

molecule CCOc1cccc(-c2nc3ncc(NS(C)(=O)=O)nc3n2-c2c(OC)cccc2OC)n1 [Compound I free acid Form A] , solubility observed: < 1100 µg/mL

###

Assay: Approximate solubility of Compound I free acid Form A in 14 solvents at RT
Format: physicochemical
Settings: organic solvent or mixture, thermodynamic from solid, acetone
measurement-name: solubility

compound CCOc1cccc(-c2nc3ncc(NS(C)(=O)=O)nc3n2-c2c(OC)cccc2OC)n1 [Compound I free acid Form A] , solubility observed: 2100 to 5200 µg/mL

###

Assay: Approximate solubility of Compound I free acid Form A in 14 solvents at RT
Assay type: physicochemical
Conditions: organic solvent or mixture, thermodynamic from solid, THF
measurement-name: solubility

compound CCOc1cccc(-c2nc3ncc(NS(C)(=O)=O)nc3n2-c2c(OC)cccc2OC)n1 [Compound I free acid Form A] , solubility observed: 9 to 18 mg/mL

###

Assay: physchem
Conditions: 2-Butanol, 26 °C, organic solvent or mixture, thermodynamic from solid
Counter-ions that a name gives are not always drawn.
measurement-name: solubility

compound CCOc1cccc(-c2nc3ncc(NS(C)(=O)=O)nc3n2-c2c(OC)cccc2OC)n1 [Compound I choline salt Form A] , solubility observed: < 1800 µg/mL

###

Experiment: physchem
Settings: toluene, 26 °C, organic solvent or mixture, thermodynamic from solid
Where a name gives a salt, the structure may show the parent alone.
measurement-name: solubility

molecule CCOc1cccc(-c2nc3ncc(NS(C)(=O)=O)nc3n2-c2c(OC)cccc2OC)n1 [Compound I choline salt Form A] , solubility observed: < 2200 µg/mL

###

Experiment: Dog pharmacokinetic study after oral administration, plasma by LC-MS/MS
Assay type: in vivo, male Beagle dogs
Conditions: male, Beagle, plasma, po, 30 mg/kg, capsule, mean, plasma Compound I
Method: The objective of this study was to characterize the pharmacokinetics (PK) of Compound I in male Beagle dogs after oral (P0) administration. The P0 formulation was prepared in capsule or prepared in 0.50% or […] (methyl cellulose) in water at a concentration of 6 mg/mL for oral administration at 30 mg/kg. […] The plasma concentration of Compound I was determined by liquid chromatography with mass spectrometric detection (LC-MS/MS).
Where a name gives a salt, the structure may show the parent alone.
measurement-name: Cmax

compound CCOc1cccc(-c2nc3ncc(NS(C)(=O)=O)nc3n2-c2c(OC)cccc2OC)n1 [Compound I choline salt Form A] , Cmax observed: 11900 ng/mL
